# Test system: UACC-62 melanoma
# Measurement notes: NCI-60 one-dose screen, 48 h (100 = growth as untreated, 0 = no growth, -100 = all killed)
# Particulars: 10 µM unless noted
About 83,000 compounds went through this panel and 20% of them were active in at least one assay; those are over-represented in the sample as a whole.
Metric: growth (%)
Value expressed in %; do not type the unit.

Query: Look up growth with UACC-62 melanoma for this compound: CC(C)CC(NC(=O)CN(Cc1ccccc1)S(C)(=O)=O)C(=O)O (stereo not given)
Result: 89.2

Query: Okay, and COc1cccc(-c2nn(-c3ccccc3)cc2-c2ccnc(NCCNC(=O)Nc3ccccc3)c2)c1 ?
Result: 51.5

Query: Okay, and C=CCn1c(C)nc2cc(Nc3nc(N4CCCC4)nc4ccccc34)ccc21 ?
Result: 113

Query: Okay, and CCN1C(=O)N(CC)C2Nn3c(s/c(=C\c4cccc([N+](=O)[O-])c4)c3=O)=NC21 (stereo not given) ?
Result: 47

Query: Okay, and CCOC(=O)c1c(-c2ccc(Cl)cc2)c(C#N)c(=O)n(-c2ccccc2CC)c1N ?
Result: 68.8

====

# System: HS 578T breast
# Measurement notes: NCI-60 one-dose screen, 48 h (100 = growth as untreated, 0 = no growth, -100 = all killed)
# Particulars: 10 µM unless noted
This is part of a sample that, as a whole, favours compounds with a hit. Of some 83,000 tested, about 20% had one in any assay.
For each record, write down the corresponding growth.
Value expressed in %; do not type the unit.

Query: So what does the record say about growth for c1coc(-c2c3ccc(=[N+]4CCCCC4)cc-3oc3cc(N4CCCCC4)ccc23)c1 ?
Result: -35.6

Query: Okay, and CC/C=C/C/C=C/C/C=C/C/C=C/C/C=C/C/C=C/CCC(=O)Nc1ccn([C@@H]2O[C@H](CO)[C@@H](O)C2(F)F)c(=O)n1 ?
Result: 76.1

Query: Okay, and Cc1ccc(C(=NN=C(N)N)c2ccc(C)cc2)cc1 ?
Result: 32.4

Query: Okay, and COc1ccc2[nH]c(O)c(C(=Nc3ccc(N(C)C(=O)CN4CCN(C)CC4)cc3)c3ccccc3)c2c1 ?
Result: -16.8

Query: Okay, and Cc1cc(C)c2c(-c3nnc(N)s3)cc(=O)oc2c1 ?
Result: 92.4

Query: Okay, and COc1ccc(NC(=O)CSc2nc(C)c(C(C)=O)n2-c2ccc(Cl)cc2)cc1 ?
Result: 90.4

Query: Okay, and COc1ccc(/C=c2\nc3n(-c4ccccc4)c4nc5c6c(sc5c(=N)n4n-3c2=O)CCCC6)cc1 ?
Result: 85.6

Query: Okay, and NC(=O)c1ccc[n+]([C@@H]2O[C@H](COP(=O)([O-])OP(=O)(O)OC[C@H]3O[C@@H](n4cnc5c(N)ncnc54)[C@H](O)[C@@H]3O)[C@@H](O)[C@H]2O)c1 ?
Result: 107

Query: Okay, and Cc1cc[c-]cc1.Fc1c[c-]c(-c2ccccn2)c(F)c1.[Pt+2].c1ccc(P(C[PH+](c2ccccc2)c2ccccc2)c2ccccc2)cc1 ?
Result: 39.6

Query: Okay, and O=C(CSc1nnc(-c2ccc(NC(=O)c3cccnc3)cc2)o1)N[C@@H](Cc1ccc(O)cc1)C(=O)O ?
Result: 96.9

Query: Okay, and N#CC1=C(c2ccc(Br)cc2)NC(SCC(=O)c2ccc(Br)cc2)NC1=O (stereo not drawn) ?
Result: 97

Query: Okay, and COc1cccc(C(=O)NCCCNc2cc(-c3cn(-c4ccccc4)nc3-c3cccc(OC)c3)ccn2)c1 ?
Result: 47.5

Query: Okay, and CCN(CC)CCN1CC(O)=C(c2nc(-c3ccc(Cl)cc3)cs2)C1=N ?
Result: 47.2

Query: Okay, and COc1ccc(/C=N/C2=C(C#N)C(c3ccc(OC)cc3)c3ccc4ccccc4c3O2)cc1 (stereo not drawn) ?
Result: 84.2

Query: Okay, and CCN(CC)CCN1C(=O)c2c(c(C)c3c(oc4cc(O)ccc43)c2C)C1=O ?
Result: 87.7

Query: Okay, and Cc1ccc(Cc2cnc(NC(=O)c3ccc4noc(-c5ccccc5)c4c3)s2)cc1 ?
Result: 95.7

Query: Okay, and O=C(O)CN1C(=O)CCC1=O ?
Result: 115

Query: Okay, and CC1=C(SCCC(=O)OC(C[Se]C2=C(C)C(=O)c3ccccc3C2=O)C(=O)NCCCCCC(=O)OCc2ccccc2)C(=O)c2ccccc2C1=O (stereo not drawn) ?
Result: 34

====

# System: KM12 colon
# Measurement notes: NCI-60 one-dose screen, 48 h
# Particulars: 10 µM unless noted
This is part of a sample that, as a whole, favours compounds with a hit. Of some 83,000 tested, about 20% had one in any assay. Activity calls are given as the source filed them. How the source made its calls: active means growth percent below 10; inactive means the rest.
Log the outcome using a class from active, inactive

Query: Just curious, what result did COc1cccc(-c2nn(-c3ccccc3)cc2-c2ccnc(NCCCNC(=O)c3cccc(C(F)(F)F)c3)c2)c1 get here?
Result: inactive

Query: Okay, and CC1(C)OC2C(CO[Si](C)(C)C(C)(C)C)OC(n3c(I)c(C#C[Si](C)(C)C)c(=O)[nH]c3=O)C2O1 (centres undefined) ?
Result: inactive

Query: Okay, and COc1ccc(-c2cc(-c3cc(OC)c(OC)c(OC)c3)c(C#N)c(N3CCOCC3)n2)cc1O ?
Result: inactive

Query: Okay, and COC(=O)c1c2c(c(C)[n+]([O-])c1C)C(=O)C(NCc1ccc(F)c(Cl)c1)=CC2=O ?
Result: inactive

Query: Okay, and CCCCOc1nc2ccccc2cc1C1CNC(=O)c2ccccc2N1 (centres undefined) ?
Result: inactive

Query: Okay, and CS(=O)(=O)c1ccc(Nc2nc(N[C@H]3CCCC[C@H]3N)nc3cc[nH]c(=O)c23)cc1 ?
Result: active

Query: Okay, and O=c1ccn2nc3ccccc3c2[nH]1 ?
Result: inactive

Query: Okay, and COc1cc(/C=N/n2c(CN3CCOCC3)nc3ccccc3c2=O)cc(OC)c1OC ?
Result: inactive

Query: Okay, and CCOC(=O)c1ccc(N2NC(=O)/C(=C/c3ccc([N+](=O)[O-])o3)C2=O)cc1 ?
Result: inactive

====

# Test system: IGROV1 ovarian
# Measurement notes: NCI-60 one-dose screen, 48 h
# Particulars: 10 µM unless noted
# Description: Growth inhibition of the IGROV1 human tumor cell line is measured as a screen for anti-cancer activity. Cells are grown in 96 well plates and exposed to the test compound for 48 hours. Compounds are tested at a single concentration, which is 10^-5 M for most compounds. The reported endpoint is percent growth (GI% or GIPRCNT), where numbers from 0 - 100% represent growth inhibition, and numbers from -100% - 0 represent cell death. For example, a value of 40 represents 60% growth inhibition. […]
Compounds without any hit were thinned out: in the full panel of roughly 83,000, 20% have a hit. The source made the active and inactive calls. How the source made its calls: active means growth percent below 10; inactive means the rest.
Log the outcome using a class from active, inactive

Query: Just curious, what result did COc1ccc(OC)c2c1[nH]c(=O)c1c3ncccc3cn21 get here?
Result: inactive

Query: Okay, and Cc1ccc(NCCN(C)C)c2c(=O)c3ccccc3sc12 ?
Result: active

Query: Okay, and CC(=O)N1C(=S)NC(=O)C1Cn1c(-c2ccccc2)nc2ccccc21 (stereo unspecified) ?
Result: inactive

Query: Okay, and COc1cc(C(=O)/C=C/c2c(-c3ccc(F)cc3)nc3sc(C)cn23)cc(OC)c1OC ?
Result: inactive

Query: Okay, and CCCCCCCCCCN(CCCCCCCCCC)CC(=O)c1ccc2cc(Br)c3ccccc3c2c1 ?
Result: active

Query: Okay, and CCCCC1CCCCN1C(=O)OCC (stereo unspecified) ?
Result: inactive

====

For each record, write down the corresponding growth.
# System: SK-OV-3 ovarian
# Measurement notes: NCI-60 one-dose screen, 48 h (100 = growth as untreated, 0 = no growth, -100 = all killed)
# Particulars: 10 µM unless noted
The panel holds about 83,000 compounds, 20% with a hit somewhere; the sample as a whole holds those more often.
Value expressed in %; do not type the unit.

Query: So what does the record say about growth for COC(=O)[C@]12CC[C@@H](C)[C@H](C)[C@@H]1C1=CC[C@@H]3[C@@]4(C)C(C=O)=C[C@@](C)(COS(C)(=O)=O)C4[C@H](O)C[C@@]3(C)[C@]1(C)CC2 (some centres not stated) ?
Result: -35.2

Query: Okay, and Fc1ccc(CNc2c3ccccc3nc3ccccc23)cc1F ?
Result: 55.7

Query: Okay, and O=C(O)C1CCC(=O)N1C(=O)OCc1ccccc1 (configuration not stated) ?
Result: 109

Query: Okay, and Fc1c[c-]c(-c2ccccn2)c(F)c1.[CH3-].[Pt+2].c1ccc(P(C[PH+](c2ccccc2)c2ccccc2)c2ccccc2)cc1 ?
Result: 9.11

Query: Okay, and C=C(C)[C@@H]1CC[C@]2(C(=O)NC3CCCCC3)CC[C@]3(C)[C@H](CC[C@@H]4[C@@]5(C)CCCNC(C)(C)[C@@H]5CC[C@]43C)[C@@H]12 ?
Result: 95.8

Query: Okay, and Cc1cc[c-]cc1.Fc1c[c-]c(-c2ccccn2)c(F)c1.[Pt+2].c1ccc(P(C[PH+](c2ccccc2)c2ccccc2)c2ccccc2)cc1 ?
Result: -3.95

Query: Okay, and CCc1ccccc1-n1c(-c2ccc(Cl)cc2)cc(-c2ccc(Cl)cc2)c(C#N)c1=O ?
Result: 96.5
